- Test system: U3054MG
- MEASUREMENT DESCRIPTION: In vitro cytotoxicity (WST-1), U3054MG
- Assay type: cell-based, human
- STATED CONDITIONS: spheres, 10 days
TEST READOUT: IC50
Give your result as the value with the unit written after it.

// IC50 lookup, key: COc1cccc2c1C(=O)c1c(O)c3c(c(O)c1C2=O)CC(O)(C(=O)CO)CC3OC1CC2C(OC3C(OC)OCCN23)C(C)O1 (stereo not shown) 0.145 nM

Every entry's value here was drawn from patent US20260345803A1.
